target: JAK2 (Homo sapiens)
Sequence (O60674 whole entry): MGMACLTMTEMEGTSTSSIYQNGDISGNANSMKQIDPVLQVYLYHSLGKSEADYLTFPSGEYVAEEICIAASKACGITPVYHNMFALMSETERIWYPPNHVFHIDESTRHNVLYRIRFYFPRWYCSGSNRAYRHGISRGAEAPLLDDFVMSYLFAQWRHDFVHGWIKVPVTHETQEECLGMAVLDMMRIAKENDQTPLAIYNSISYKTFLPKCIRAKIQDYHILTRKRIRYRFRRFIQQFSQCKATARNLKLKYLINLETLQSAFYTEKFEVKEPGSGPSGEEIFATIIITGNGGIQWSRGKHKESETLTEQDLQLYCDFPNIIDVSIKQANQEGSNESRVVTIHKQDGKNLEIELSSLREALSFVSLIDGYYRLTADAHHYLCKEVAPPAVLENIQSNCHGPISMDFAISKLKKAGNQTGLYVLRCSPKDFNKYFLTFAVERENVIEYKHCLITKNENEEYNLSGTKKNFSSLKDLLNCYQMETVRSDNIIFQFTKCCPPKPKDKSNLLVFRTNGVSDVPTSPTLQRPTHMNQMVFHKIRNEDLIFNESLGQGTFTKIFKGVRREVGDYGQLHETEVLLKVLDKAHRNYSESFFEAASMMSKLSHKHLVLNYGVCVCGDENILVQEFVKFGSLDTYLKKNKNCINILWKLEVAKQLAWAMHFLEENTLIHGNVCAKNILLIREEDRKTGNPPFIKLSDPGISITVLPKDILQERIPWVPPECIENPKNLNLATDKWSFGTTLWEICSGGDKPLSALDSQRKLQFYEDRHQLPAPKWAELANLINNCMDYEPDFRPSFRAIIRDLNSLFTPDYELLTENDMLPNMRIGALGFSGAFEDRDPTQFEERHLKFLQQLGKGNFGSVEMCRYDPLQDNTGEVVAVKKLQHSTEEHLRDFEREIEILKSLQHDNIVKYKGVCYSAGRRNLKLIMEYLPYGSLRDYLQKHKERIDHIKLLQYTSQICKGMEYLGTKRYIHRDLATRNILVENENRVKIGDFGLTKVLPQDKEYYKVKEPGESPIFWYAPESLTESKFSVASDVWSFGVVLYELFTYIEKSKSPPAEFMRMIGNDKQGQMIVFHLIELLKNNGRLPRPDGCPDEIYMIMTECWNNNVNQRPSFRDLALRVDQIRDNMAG
ASSAY_METRIC: IC50 (nM)
Form entry: value (nM) — number only.

CC(C)(C)NS(=O)(=O)c1cccc(N2CCc3cnc(Nc4ccc(OCCN5CCS(=O)(=O)CC5)cc4)nc32)c1 ... 0.75

Tell me reported IC50 for CCN1CCN(Cc2ccc(Nc3ncc4c(n3)N(c3cccc(S(=O)(=O)NC(C)(C)C)c3)CC4)cc2)CC1 , tested with JAK2 (Homo sapiens).
1.2

Tell me reported IC50 for CC(C)(C)NS(=O)(=O)c1cccc(N2CCc3cnc(Nc4ccc(OCCN5CCCCC5)cc4)nc32)c1 , tested with JAK2 (Homo sapiens).
1.1

Tell me reported IC50 for CC(C)(C)NS(=O)(=O)c1cccc(N2CCc3cnc(Nc4ccc(OCCN5CCNCC5)cc4)nc32)c1 , tested with JAK2 (Homo sapiens).
1.1

Tell me reported IC50 for CN1CCN(c2ccc(Nc3ncc4c(n3)N(c3cccc(S(=O)(=O)NC(C)(C)C)c3)CC4)cc2)CC1 , tested with JAK2 (Homo sapiens).
0.73
